# assayed.system: MAGI2_6, Q86UL8
# Sequence (Q86UL8 1141-1229): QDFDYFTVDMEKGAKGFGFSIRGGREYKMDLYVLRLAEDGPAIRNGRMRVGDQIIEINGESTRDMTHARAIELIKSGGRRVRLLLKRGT
# protocol.notes: holdup assay
# Set-up: key: below the threshold = too weak to quantify, mostly under pKd 3.1 to 4
# run.conditions: plain residues with an end cap or a label only (N-terminal biotin on a linker: ado-ado)
readout.type: pKd

SARSRLSSNL [HCN2, Q9UL51]
below the threshold
DTTVPESEDL [MYOZ2, Q9NPC6]
4.11
LPHPHSTTRV [NLGN2, Q8NFZ4]
below the threshold
VNKSKLLTDV [KCNA1, Q09470]
3.88
GQEEQVTTRL [TRPC5, Q9UL62]
3.59

Quick one: give me pKd for each item below, same order please.
1. QGLAERISVL [PRKD2, Q9BZL6]
2. LKVPPEERLI [CRB2, Q5IJ48]
3. NHSSSPETTA [TRMT13, Q9NUP7]
4. TSSMRGMDAV [RSRC2, Q7L4I2]
5. SNAGNTATKA [NOSTRIN, Q8IVI9]
6. TPPAAKKSRI [BAZ1A, Q9NRL2]
7. YRLAQESGLV [ABCC6, O95255]
8. RRISSLESEV [GRIN2C, Q14957]

Return:
1: 3.98; 2: below the threshold; 3: below the threshold; 4: below the threshold; 5: below the threshold; 6: below the threshold; 7: below the threshold; 8: 4.31

Hi, could you look up pKd for each item in my list?
1. RKPKPSSSCC [RAB9A, P51151]
2. TLPRKRMSSI [GPRC6A, Q5T6X5]

Return:
below the threshold
below the threshold

Enquiry: Return the recorded pKd value; entry: YNNCLEILRV [DCAF7, P61962]
Return: below the threshold
